- Experiment: chemical genetic growth profiling, strain panel (AID 1159580);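 also: tested at 20 µM; growth read once vehicle control cultures reached saturation at 30 °C; 1 = growth at the plate median or of vehicle wells; lower values mean less growth of the strain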
- Settings: S. cerevisiae deletion strains, growth OD, locus YDL005C, strain med2, hits give low values
Screen size: about 5,500 compounds; about 2,000 (36%) were called active. Inconclusive results (about 18%) are left out. This is one part of the list.
Provide the reported normalized growth of each item.
Numbers only.

Check out these entries, answers already filled in.
OCCc1ccccc1 | 0.989
O=C1C(Cl)=C(Cl)C(=O)C(Cl)=C1Cl | 1
O=C(O[C@@H]1Cc2c(O)cc(O)cc2O[C@@H]1c1cc(O)c(O)c(O)c1)c1cc(O)c(O)c(O)c1 | 0.994
COC(=O)C[C@H]1C2(C)CC34OC5(C)O[C@@]6([C@H](OC(C)=O)C(OC(C)=O)[C@]7(C)C(/C(=C(/O)C(C)C)C(=O)O[C@H]7c7ccoc7)[C@@]6(O5)[C@H](OC(C)=O)[C@@]3(O)C2OC(=O)C(C)C)[C@]14C (some centres not stated) | 0.982
CCC(C)C(=O)O[C@@H]1C[C@@]2(C)[C@H](c3ccoc3)OC(=O)CC23OC2(C)O[C@]14[C@]1(C)[C@@H](CC(=O)OC)C5(C)CC1(O)[C@](O)(C5OC(=O)C1(C)OC1C)[C@@H](OC(C)=O)[C@]34O2 (some centres not stated) | 0.978

Consider the following items and state reported normalized growth for each.
1. CC(=O)Oc1cc(OC(C)=O)c2c(c1)O[C@H](c1ccc(OC(C)=O)c(OC(C)=O)c1)[C@H](OC(C)=O)C2
2. O=C(O)CCCc1ccc(N(CCCl)CCCl)cc1

Response:
1: 1.01; 2: 0.997

###

Provide the reported normalized growth of each item.
- Experiment: chemical genetic growth profiling, strain panel (AID 1159580);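 also: tested at 20 µM; growth read once vehicle control cultures reached saturation at 30 °C; 1 = growth at the plate median or of vehicle wells; lower values mean less growth of the strain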
- Settings: S. cerevisiae deletion strains, growth OD, locus YCL011C, strain gbp2, hits give low values
The whole screen tested about 5,500 compounds, of which about 2,000 (36%) were called active. Another 18% or so got no clear call; they are omitted. Some of the results follow.
One number for each entry.

COc1ccc(-c2coc3cc(O)ccc3c2=O)c(OC)c1 | 1.03
COc1ccc(-c2coc3cc(O)ccc3c2=O)c(OC)c1O | 0.977
CN(C)CCCC1(c2ccc(F)cc2)OCc2cc(C#N)ccc21 (stereo not drawn) | 0.99
O=C(c1ccc(OCCN2CCCCC2)cc1)c1c(-c2ccc(O)cc2)sc2cc(O)ccc12 | 1.02
CCCc1cc(C(N)=S)ccn1 | 0.974
C=C1C2CC[C@@]3(C)[C@H](c4ccoc4)OC(=O)C[C@]13O[C@H]1CC(=O)C(C)(C)[C@H](C(OC(C)=O)C(=O)OC)[C@@]21C (stereo partly drawn) | 0.993
CN(C)CCN(Cc1cccs1)c1ccccn1 | 1.01

Okay, next one:
Query: For O=c1c(-c2ccc(O)cc2)coc2cc(O)ccc12 , what is its reported normalized growth?
Response: 0.98

###

- Experiment: chemical genetic growth profiling, strain panel (AID 1159580);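 also: tested at 20 µM; growth read once vehicle control cultures reached saturation at 30 °C; 1 = growth at the plate median or of vehicle wells; lower values mean less growth of the strain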
- Settings: S. cerevisiae deletion strains, growth OD, locus YOR265W, strain rbl2, hits give low values
In all, about 5,500 compounds went through this assay and about 2,000 (36%) were called active. Roughly 18% stayed inconclusive and do not appear here. Some of the results follow.
Provide the reported normalized growth of each item.
Give bare numbers.

Check out these entries, answers already filled in.
Cc1ncc(CNC(=O)N(CCCl)N=O)c(N)n1 | 1.01
Nc1ncn[nH]1 | 1.01
N[C@@H](Cc1ccc(N(CCCl)CCCl)cc1)C(=O)O | 0.989
NCCc1cnc[nH]1 | 1.02

Consider the following items and state reported normalized growth for each.
1. OCCc1ccccc1
2. CCC(C)C(=O)O[C@@H]1C[C@@]2(C)[C@H](c3ccoc3)OC(=O)CC23OC2(C)OC34[C@H](OC(=O)C(C)C)[C@@]3(O)[C@@H](OC(=O)C5(C)OC5C)[C@@]5(C)C[C@]3(O)[C@@](C)([C@H]5CC(=O)OC)C14O2 (stereo not given in full)
3. CC(C)NCC(O)COc1cccc2[nH]ccc12 (stereo not given)
4. COC(=O)C[C@H]1C2(C)CC34OC5(C)O[C@@]6([C@H](OC(C)=O)C(OC(C)=O)[C@]7(C)C(/C(=C(/O)C(C)C)C(=O)O[C@H]7c7ccoc7)[C@@]6(O5)[C@H](OC(C)=O)[C@@]3(O)C2OC(=O)C(C)C)[C@]14C (stereo not given in full)
5. O=C(O)CCCc1ccccc1
6. O=C1NCC2(CCN(CCc3ccccc3)CC2)O1

Response:
1. 1
2. 0.984
3. 0.982
4. 0.994
5. 0.989
6. 0.999
